System: 3TC-resistant (xxBRU 184V) HIV-1
Assay: HIV-1 Q-RT-PCR assay in human PBM cells, strain xxBRU 184V
Format: cell-based
Conditions: human PBM cells, 5 days, viral RNA reduced by 90%; read-out: Q-RT-PCR HIV-1 assay 184V EC90
Method: Human PBM cells (1×10^6 cells/T25 flask) were PHA stimulated for 2 or 3 days, and infected with either a wild type (LAI and xxBRU) or a 3TC-resistant (xxBRU 184V) HIV-1 strain at 100 TCID50, as previously described (27). […] A total of 5 μL RNA was RT-amplified using reagents and conditions as described by the manufacturer (Applied Biosystems). […] Therefore, the currently designed primer and probe set allowed reliable quantification of both clinical samples and HIV-1 in vitro preparations. […]
The compounds listed here are annotated with their EC90.
observable: EC90

smiles-notation	system-tested	result
Nc1ccn([C@H]2S[C@@H](CO)C=C2F)c(=O)n1	3TC-resistant (xxBRU 184V) HIV-1	> 100 µM
Nc1nc(=O)n([C@H]2S[C@@H](CO)C=C2F)cc1F	3TC-resistant (xxBRU 184V) HIV-1	> 100 µM
Nc1nc(=O)n([C@@H]2S[C@H](CO)C=C2F)cc1F	3TC-resistant (xxBRU 184V) HIV-1	> 100 µM
